- assayNotes: qHTS for differential inhibitors of proliferation of Plasmodium falciparum line GB4 (AID 1816);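 note: parasite growth measured after 72 h incubation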
- conditions: Plasmodium falciparum GB4 proliferation inhibition; series mostly up to 28.7 µM
Records with an inconclusive call do not appear. Calls of active or inactive are those of the source. Calls come from the whole dose curve; as a rule, active = well fitted curve in the direction sought with a large enough effect; inconclusive = small, poorly fitted or top-dose-only effect, or another doubt; inactive = no such curve, though single readings can be large or run the other way.
Possible outcomes: YES = active, NO = inactive

molecule="CN1C2CCC1CC(OC(=O)c1cc(Cl)cc(Cl)c1)C2 (configuration not stated)" assignedlabel=YES
molecule=CC[C@@]1(O)C(=O)OCc2c1cc1n(c2=O)Cc2cc3ccccc3nc2-1 assignedlabel=YES
molecule=CNCCc1ccc(O)c(O)c1 assignedlabel=YES
molecule=O=C1CCCN1CC#CCN1CCCC1 assignedlabel=NO
molecule=NCCc1c[nH]c2ccc(O)cc12 assignedlabel=NO
molecule=Oc1ccc2c3c1O[C@H]1c4[nH]c5c(c4C[C@@]4(O)[C@@H](C2)N(CC2CC2)CC[C@]314)C[C@@]1(O)[C@H]2Cc3ccc(O)c4c3[C@@]1(CCN2CC1CC1)[C@H]5O4 assignedlabel=YES
molecule=CCCCc1ccc(C(=O)O)nc1 assignedlabel=NO
molecule="CCCN(CCC)C1CCc2ccc(O)cc2C1 (configuration not stated)" assignedlabel=YES
molecule="NC(CP(=O)(O)O)C(=O)O (configuration not stated)" assignedlabel=NO
molecule=C[N+](C)(C)CC(=O)O assignedlabel=NO
molecule=CCCN1CCO[C@@H]2c3cc(O)ccc3OC[C@H]21 assignedlabel=NO
molecule=NC(=NCCC[C@H](N)C(=O)O)N[N+](=O)[O-] assignedlabel=NO
